Each entry below carries its measured IC50, system: PDI (Homo sapiens, UniProt P07237).
Sequence (P07237 18-508): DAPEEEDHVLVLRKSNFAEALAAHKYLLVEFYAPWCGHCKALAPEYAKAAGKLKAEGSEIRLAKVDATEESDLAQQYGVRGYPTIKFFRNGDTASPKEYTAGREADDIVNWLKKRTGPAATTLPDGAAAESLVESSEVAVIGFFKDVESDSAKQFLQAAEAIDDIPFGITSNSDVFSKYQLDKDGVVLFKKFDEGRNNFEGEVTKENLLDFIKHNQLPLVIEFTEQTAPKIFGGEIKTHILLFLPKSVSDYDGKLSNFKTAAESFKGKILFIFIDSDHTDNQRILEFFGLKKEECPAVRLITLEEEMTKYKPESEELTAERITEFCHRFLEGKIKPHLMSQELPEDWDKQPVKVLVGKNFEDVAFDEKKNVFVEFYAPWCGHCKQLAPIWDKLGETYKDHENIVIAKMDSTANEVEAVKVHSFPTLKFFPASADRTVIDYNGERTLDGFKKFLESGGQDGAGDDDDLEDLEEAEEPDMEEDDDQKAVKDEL
Give bare numbers, in nM.

Worked cases, IC50 given:
> print(dat)
                                item.smiles  units.symbol  recorded.number
1  Cn1nc(-c2ccc([N+](=O)[O-])cc2)nc2c(=O)n(C)c(=O)nc1-2            nM              240
2    Cn1nc(Cc2ccccc2)nc2c(=O)n(C)c(=O)nc1-2            nM              330
3  COc1ccc(-c2nn(C)c3nc(=O)n(C)c(=O)c-3[n+]2[O-])cc1            nM              420
4  COc1ccc(-c2nc3c(=O)n(C)c(=O)nc-3n(C)n2)cc1            nM              360
5            Cc1nc2c(=O)n(C)c(=O)nc-2n(C)n1            nM              170
6    Cn1nc(-c2ccccc2)nc2c(=O)n(C)c(=O)nc1-2            nM              390

Continue with the next molecule.
For the molecule `COc1cccc(-c2nc3c(=O)n(C)c(=O)nc-3n(C)n2)c1` , the measured IC50 on PDI (Homo sapiens, UniProt P07237) was 320

====

# System: U87MG cells
# ASSAY: MTT growth inhibition assay, U87MG
# STATED CONDITIONS: read-out: IC50, cytotoxicity U87MG; MTT, 72 hours
pIC50: −log10 of the molar value.
METRIC: pIC50

See these solved cases before continuing.
> print(dat)
                                   molecule    tested.on  result
1  Cc1nn(C)c2nc(=O)n(C)c(=O)c-2[n+]1[O-] [NC79]  U87MG cells  < 4.00
2           Cn1c(=O)[nH]c2nncnc2c1=O [NC75]  U87MG cells  < 4.00

Query Cn1ncnc2c(=O)n(C)c(=O)nc1-2 [NC72] yields pIC50 of 6.30
